Cited source: PubChem BioAssay AID248

# T/C annotations
Test system: L1210 leukemia ip in BDF1 mice, survival T/C
ASSAY_DETAILS: NCI In Vivo Anticancer Drug Screen. Data for tumor model L1210 Leukemia (intraperitoneal) in B6D2F1 (BDF1) mice
DETAILS: endpoint: mean survival time; dose: 25.0 mg/kg/injection; schedule: Q01DX009 (ip); vehicle: saline; higher = longer survival
Inconclusive results and toxic doses are left out.
RESULT_TYPE: T/C

CC(N)Cc1ccccc1 (centres undefined); 100 % of control
CCCCNCC1COc2cccc(OCC)c2O1 (centres undefined); 108 % of control
O=C(O)/C=C/C(=O)Nc1ccc2c(c1)Cc1cc(NC(=O)C(F)(F)F)ccc1-2; 105 % of control
CCN(CC)Cc1cc(Nc2cc(C)nc3ccc(N(C)C)cc23)ccc1O; 98 % of control
